Molecular target: RARα (Homo sapiens)
Construct: gal4 (fusion partner); expressed in transfected cells; host or cells: COS-7
Assay: Transactivation assay for RAR alpha (gal4-RAR fusion, luciferase reporter, COS-7 cells)
Assay type: cell-based
Details: fold-selectivity for RARα over RARβ
This section presents molecules with their documented RARα/RARβ ratio (*) values.

sample smiles	RARα/RARβ ratio (*)
CCOc1c(Cl)cc(C(=O)Nc2ccc(C(=O)O)cn2)cc1Cl	>5
Cc1cc(NC(=O)c2cc(OC(C)C)c(Cl)c(OC(C)C)c2)ccc1C(=O)O	68
CCOc1c(Cl)cc(C(=O)Nc2ccc(C(=O)OC)c(Cl)c2)cc1Cl	>500

// switching to the query molecule
# return recorded RARα/RARβ ratio (*) for entry CCOc1c(OC(C)C)cc(C(=O)Nc2ccc(C(=O)O)c(F)c2)cc1OC(C)C
>40

====

Target: RARα (Homo sapiens, UniProt P10276)
Construct: gal4 (fusion partner); expressed in transfected cells; host or cells: COS-7
Sequence (P10276 183-417 limits assumed, species assumed): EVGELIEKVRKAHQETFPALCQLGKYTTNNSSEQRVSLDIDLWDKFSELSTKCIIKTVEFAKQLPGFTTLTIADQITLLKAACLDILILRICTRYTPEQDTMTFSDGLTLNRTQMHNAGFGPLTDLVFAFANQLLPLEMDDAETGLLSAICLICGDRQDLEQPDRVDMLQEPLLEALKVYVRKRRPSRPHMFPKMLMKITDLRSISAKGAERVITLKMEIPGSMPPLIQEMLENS
Assay: Transactivation assay for RAR alpha (gal4-RAR fusion, luciferase reporter, COS-7 cells)
Format: cell-based
Conditions: fold-selectivity for RARα over RARβ
parameter measured: RARα/RARβ ratio (*)
No unit in the answer, please; the number alone is enough.

Please review the following examples before continuing.
compound	RARα/RARβ ratio (*)
CC(C)Oc1c(Cl)cc(C(=O)Nc2ccc(C(=O)O)c(F)c2)cc1C(F)(F)F [AAA-069]	421
CCOc1c(Cl)cc(C(=O)Nc2ccc(C(=O)O)c(C)c2)cc1OC [AAA-085]	210
CCOc1c(Cl)cc(C(=O)Nc2ccc(C(=O)O)c(O)c2)cc1OCC1CC1 [AAA-090]	250

# return recorded RARα/RARβ ratio (*) for entry Cc1cc(NC(=O)c2cc(Cl)c(OC3CCC3)c(OC3CCC3)c2)ccc1C(=O)O [AAA-093]
46

The measurements presented in this section are drawn from patent US9447028B2.
